Molecular target: DD(E) fragment of fibrin (Homo sapiens, UniProt P02671+P02675+P02679, DEL433-453)
Construct: complex of the crosslinked D domains of adjacent fibrin monomers with the central E domain of fibrin
Sequence (P02671 130-216 limits assumed, stated change not applied): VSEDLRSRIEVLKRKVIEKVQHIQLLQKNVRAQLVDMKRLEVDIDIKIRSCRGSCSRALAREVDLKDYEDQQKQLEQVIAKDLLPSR
Sequence (P02671 36-97 limits assumed, stated change not applied): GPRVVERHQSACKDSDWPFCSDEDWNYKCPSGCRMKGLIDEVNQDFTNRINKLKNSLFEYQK
Sequence (P02675 164-491 limits assumed, stated change not applied): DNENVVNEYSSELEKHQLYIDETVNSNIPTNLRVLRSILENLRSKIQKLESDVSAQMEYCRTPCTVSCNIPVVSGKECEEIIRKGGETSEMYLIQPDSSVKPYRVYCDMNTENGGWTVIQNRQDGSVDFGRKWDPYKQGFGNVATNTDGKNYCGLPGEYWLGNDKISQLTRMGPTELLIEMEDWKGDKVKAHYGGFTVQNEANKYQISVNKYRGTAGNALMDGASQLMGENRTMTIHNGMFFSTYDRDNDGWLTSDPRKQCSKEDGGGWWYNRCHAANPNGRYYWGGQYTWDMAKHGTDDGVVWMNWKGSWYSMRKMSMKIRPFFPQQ
Sequence (P02675 45-152 limits assumed, stated change not applied): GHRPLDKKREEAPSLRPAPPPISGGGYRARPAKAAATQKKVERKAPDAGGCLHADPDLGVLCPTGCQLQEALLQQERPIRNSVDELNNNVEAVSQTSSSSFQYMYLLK
Sequence (P02679 114-432 limits assumed, stated change not applied): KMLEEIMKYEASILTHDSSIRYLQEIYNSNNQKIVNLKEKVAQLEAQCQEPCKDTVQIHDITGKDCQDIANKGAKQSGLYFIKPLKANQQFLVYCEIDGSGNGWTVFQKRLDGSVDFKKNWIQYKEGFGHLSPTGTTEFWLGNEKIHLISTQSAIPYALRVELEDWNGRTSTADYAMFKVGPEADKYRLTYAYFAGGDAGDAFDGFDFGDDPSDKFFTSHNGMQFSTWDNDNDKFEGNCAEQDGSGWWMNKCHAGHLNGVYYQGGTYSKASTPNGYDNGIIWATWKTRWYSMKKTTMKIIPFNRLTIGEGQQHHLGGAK
Sequence (P02679 27-88 limits assumed, stated change not applied): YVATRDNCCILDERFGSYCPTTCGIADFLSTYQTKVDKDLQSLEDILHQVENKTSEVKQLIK
Experiment: Dissociation constant (Kd) of optical agent for DD(E) fragment of fibrin
Type: binding
Conditions: 24° C.; read-out: Kd (μM) vs. DD(E) @ 24° C.
Starred links: 1 amine or outer side, 2 acyl side, 3 side chain; linkers in the order of their positions; H or OH if unused. Positions of bridges follow the written chain, without caps; N, C: chain ends. Non-standard residues stand in square brackets, D forms with d. Residues, ends and D or L forms follow the SMILES beside them. *: point of attachment. NH(Fluorescein-5-yl) = O=C1OC2(c3ccc(O)cc3Oc3cc(O)ccc32)c2ccc(N*)cc21; Tyr(3-I) = N[C@@H](Cc1ccc(O)c(I)c1)C(=O)O; Hyp = O=C(O)[C@@H]1C[C@@H](O)CN1; CO = O=C([*:1])[*:2]; βAla = NCCC(=O)O
OUTCOME_MEASURE: Kd
Number first, unit second: that is the form wanted.

*Q* # query: Kd | item CC[C@H](C)[C@H](NC(=O)[C@H](Cc1c[nH]cn1)NC(=O)[C@@H]1CSSC[C@H](NC(=O)[C@H](Cc2c[nH]cn2)NC(=O)[C@H](Cc2ccccc2)NC(=O)CCNC(=O)Nc2ccc3c(c2)C(=O)OC32c3ccc(O)cc3Oc3cc(O)ccc32)C(=O)N2C[C@H](O)C[C@H]2C(=O)N[C@@H](Cc2ccc(O)c(I)c2)C(=O)N[C@@H](CC(=O)O)C(=O)N[C@@H](CC(C)C)C(=O)N1)C(=O)N[C@@H](CC(C)C)C(N)=O [Structure I] ({NH(Fluorescein-5-yl)-CO-βAla}-FHC[Hyp][Tyr(3-I)]DLCHIL-NH2; disulfide 3-8) | system: DD(E) fragment of fibrin (Homo sapiens, UniProt P02671+P02675+P02679, DEL433-453)
*A* 0.1 µM
